Exercise: for every item that follows, state its recorded inhibition at 30 µM.
# Tested On: ASIC1 (hASIC1; ASIC1a as primary isoform in tsA-201 cells) (Homo sapiens)
# Sequence (P78348 whole entry, canonical isoform): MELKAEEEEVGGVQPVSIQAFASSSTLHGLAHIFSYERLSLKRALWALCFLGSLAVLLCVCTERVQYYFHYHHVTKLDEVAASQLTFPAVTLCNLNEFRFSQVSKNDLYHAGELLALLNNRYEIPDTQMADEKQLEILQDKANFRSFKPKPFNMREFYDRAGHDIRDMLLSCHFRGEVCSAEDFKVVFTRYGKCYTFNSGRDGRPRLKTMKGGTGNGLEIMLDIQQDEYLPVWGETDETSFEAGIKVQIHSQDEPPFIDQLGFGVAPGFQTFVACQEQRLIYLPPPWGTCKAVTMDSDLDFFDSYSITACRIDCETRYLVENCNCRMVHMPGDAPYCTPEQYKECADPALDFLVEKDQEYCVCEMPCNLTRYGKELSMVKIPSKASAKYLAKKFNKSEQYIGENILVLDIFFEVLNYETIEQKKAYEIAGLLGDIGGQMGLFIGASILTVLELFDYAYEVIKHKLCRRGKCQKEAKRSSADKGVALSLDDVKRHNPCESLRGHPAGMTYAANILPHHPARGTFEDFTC
# Protocol Notes: automated patch clamp, single concentration
# Assay type: cell-based
# Settings: tsA201, read-out: % inhibition @ 30 µM
Answers are plain numbers, in %.

smi=N=C(N)NC(=O)c1nc(-c2cc3cc(F)cc(F)c3o2)c(N)nc1N observed_result=76
smi=COc1ccc2oc(-c3nc(C(=O)NC(=N)N)c(N)nc3N)cc2c1 observed_result=82

For each listed entry, give its inhibition at 30 µM.
1. N=C(N)NC(=O)c1nc(-c2cc3cc(F)ccc3o2)c(N)nc1N
2. N=C(N)NC(=O)c1nc(-c2ccco2)c(N)nc1N

[82, 75]

API: value(readout= inhibition at 30 µM, system= ASIC1 (hASIC1; ASIC1a as primary isoform in tsA-201 cells) (Homo sapiens), query= CC(C)(C)c1ccc2oc(-c3nc(C(=O)NC(=N)N)c(N)nc3N)cc2c1 )
71

---

# Tested On: ASIC1 (hASIC1; ASIC1a as primary isoform in tsA-201 cells) (Homo sapiens)
# Protocol Notes: cell-based
# Settings: tsA201, read-out: % inhibition @ 30 µM
Exercise: for every item that follows, state its recorded inhibition at 30 µM.
Numbers only, in %.

Take a look at these entries with their results.
compound="N=C(N)NC(=O)c1nc(-c2cc3ccccc3o2)c(N2CCCCC2)nc1N [compound 60, 60]" observed_result=54
compound="N=C(N)NC(=O)c1nc(-c2cc3ccccc3o2)c(NC2CCCC2)nc1N [compound 63, 63]" observed_result=22
compound="N=C(N)NC(=O)c1nc(-c2cc3ccccc3o2)c(N2CCCC2)nc1N [compound 59, 59]" observed_result=59

# ---- query compound ----
I have this compound here, N=C(N)NC(=O)c1nc(-c2cc3ccccc3o2)c(NC2CCCCCC2)nc1N [compound 64, 64] , and I need its recorded inhibition at 30 µM.
10

---

# Tested On: ASIC1 (hASIC1; ASIC1a as primary isoform in tsA-201 cells) (Homo sapiens)
# Protocol Notes: cell-based
# Settings: tsA201, read-out: % inhibition @ 30 µM
Exercise: for every item that follows, state its recorded inhibition at 30 µM.
Answers are plain numbers, in %.

Take a look at these entries with their results.
compound="N=C(N)NC(=O)c1nc(-c2cc3ccccc3o2)c(NCCc2ccccc2)nc1N [compound 66, 66]" reported_metric="inhibition at 30 µM" display_unit=% observed_result=31
compound="CCN(c1nc(N)c(C(=O)NC(=N)N)nc1-c1cc2ccccc2o1)C(C)C [compound 62, 62]" reported_metric="inhibition at 30 µM" display_unit=% observed_result=46

# ---- query compound ----
I have this compound here, N=C(N)NC(=O)c1nc(-c2cc3ccccc3o2)c(NCc2ccccc2)nc1N [compound 65, 65] , and I need its recorded inhibition at 30 µM.
39

---

# Tested On: ASIC1 (hASIC1; ASIC1a as primary isoform in tsA-201 cells) (Homo sapiens)
# Protocol Notes: cell-based
# Settings: tsA201, read-out: % inhibition @ 30 µM
Reported Metric: inhibition at 30 µM
# include the unit after the value

Take a look at these entries with their results.
smi=N=C(N)NC(=O)c1nc(Cl)c(NCCP(=O)(O)O)nc1N observed_result=81%
smi=N#CCCNc1nc(N)c(C(=O)NC(=N)N)nc1Cl observed_result=80%

I have this molecule here, Cc1ccc(S(=O)(=O)NCCNc2nc(N)c(C(=O)NC(=N)N)nc2Cl)cc1 , and I need its recorded inhibition at 30 µM.
79%
